Assay: Inhibition of HCV2b.2 NS5B Cdelta21 RNA dependent RNA polymerase
Design: species or system Hepacivirus hominis, 2b.2
VALUE KIND: pIC50
Give only the number. pIC50 is defined as minus log10 of concentration in molar units.

Field request: pIC50 | item: O=C1c2cccc3c(NC4CCCCC4)ccc(c23)C(=O)N1c1cccc(Br)c1 6.92

// returns reported pIC50 for input O=C1c2cccc3c(NCCO)ccc(c23)C(=O)N1c1cccc(Br)c1 6.74

Name the reported pIC50 value associated with the compound O=C1c2ccc(NCCO)c3cccc(c23)CN1c1cccc(Br)c1 5.46

Param item = O=C1c2cccc3c(N[C@H]4CC[C@@H](C(=O)O)CC4)ccc(c23)C(=O)N1c1cccc(Br)c1 ; retrieve measured pIC50. 6.96

Need pIC50, item CC(C)CNc1ccc2c3c(cccc13)C(=O)N(c1cccc(Br)c1)C2=O 7.05
